Target: T1, human SIRPβ1 isoform 1 on cells (human, UniProt O00241 30-398)
T1 construct: On CHO cells (low level), on BWZ/BW5147.G.1.4 cells (reporter cells co-express human DAP12) or on primary human myeloid cells; also called huSIRPβ1; BWZ-huSIRPβ1
T1 sequence (O00241 30-398): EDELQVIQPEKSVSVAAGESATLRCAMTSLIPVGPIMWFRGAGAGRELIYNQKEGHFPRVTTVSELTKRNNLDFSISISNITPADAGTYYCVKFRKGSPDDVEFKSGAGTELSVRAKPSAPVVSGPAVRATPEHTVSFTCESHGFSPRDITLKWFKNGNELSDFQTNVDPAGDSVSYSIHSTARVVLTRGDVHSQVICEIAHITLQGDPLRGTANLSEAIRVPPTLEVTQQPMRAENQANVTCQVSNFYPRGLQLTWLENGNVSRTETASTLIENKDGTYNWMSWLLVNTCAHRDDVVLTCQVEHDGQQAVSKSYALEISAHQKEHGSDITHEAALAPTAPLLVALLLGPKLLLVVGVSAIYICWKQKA
Test: flow cytometry;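 also: antibodies tested at 1 µg/ml for 30 min on ice against receptor-expressing cells, detected with a PE-labelled secondary antibody, read as mean fluorescence intensity relative to background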
Endpoint: FOB (fold over background)
Numeric only. Scale: fold over background

>>> recorded_result("SB-44 (antibody, V domains shown, IgG) VH: EVQLVESGGGLVQPGGSLRLSCAASGFTVSSNYMSWVRQAPGKGLEWVSVIYSGGDTYYADSVKGRFTISRDNSKNTLYLQMNSLRAEDTAVYYCAREGSSFWSGSAVSYYGMDVWGQGTTVTVSS VL: DIQMTQSPSTLSASVGDRVTITCRASQSIGSWLAWYQQKPGKAPKLLIYKASSLESGVPSRFSGSGSGTEFTLTISSLQPDDFATYYCQEYGSYRTFGGGTKVEIK")
2.8

What value of FOB has been reported for the following binder? SB-43 (antibody, V domains shown, IgG) VH: QVQLQESGPGLVKPSETLSLTCAVSGYSISSGYYWAWIRQPPGKGLEWIGSIYHSGSTYYNPSLKSRVTISVDTSKNQFSLKLSSVTAADTAVYYCARDAPGYPMLGMDVWGQGTTVSVSS VL: EIVLTQSPATLSLSPGERATLSCRASQSVSSYLAWYQQKPGQAPRLLIYDASKRATGIPARFSGSGSGTDFTLTISSLEPEDFAVYYCQQRFDFPITFGGGTKVEIK
2.8

Origin of values: patent US20250026827A1
